Every entry's value here was drawn from the supplement of paper PMC4932681.

# Tested on: ZR-75-1
# assay-info: viability inhibition at highest dose (% inhibition); higher = more growth inhibition
# conditions: 4-OH-tamoxifen in medium 0 µM; 72 h
Counter-ions that a name gives are not always drawn.
value-kind: viability inhibition at highest dose
The answer should be a number; do not append a unit.

Solved cases (5 shown):
• Cc1ccc([N+](=O)[O-])cc1S(=O)(=O)N(C)/N=C/c1cnc2ccc(Br)cn12 [PIK-75 (HCl)] (drug 10000 nM) = 80
• O=C(CCBr)N1CCN(C(=O)CCBr)CC1 [Pipobroman] (drug 10000 nM) = -15
• C[C@]1(c2nc3c(C(N)=O)cccc3[nH]2)CCCN1 [Veliparib (ABT-888)] (drug 10000 nM) = -8.51
• C[C@@H]1C[C@H]2[C@@H]3CCC4=CC(=O)C=C[C@]4(C)[C@@]3(F)[C@@H](O)C[C@]2(C)[C@@]1(O)C(=O)CO [Dexamethasone (Decadron)] (drug 10000 nM) = -4.79
• O=C1CN2Cc3c(ccc(Cl)c3Cl)N=C2N1 [Anagrelide] (drug 10000 nM) = -12.6

--- query ---
Query string: Please tell me the measured viability inhibition at highest dose for CCC1=C[C@@H]2CN(C1)Cc1c([nH]c3ccccc13)[C@@](C(=O)OC)(c1cc3c(cc1OC)N(C)[C@H]1[C@@](O)(C(=O)OC)[C@H](OC(C)=O)[C@]4(CC)C=CCN5CC[C@]31[C@@H]54)C2 [Vinorelbine (tartrate)] (drug 10000 nM) ; system: ZR-75-1.
Result string: 26.2

----------
# Tested on: BT-474
# assay-info: viability inhibition at highest dose (% inhibition); higher = more growth inhibition
# conditions: 4-OH-tamoxifen in medium 0 µM; 72 h
Entries are grouped by viability inhibition at highest dose into these classes: lower = under -6, middle = from -6 up to 20, upper = 20 and over

Please review the following examples before continuing.
• CCOc1cc2ncc(C#N)c(Nc3ccc(OCc4ccccn4)c(Cl)c3)c2cc1NC(=O)/C=C/CN(C)C [Neratinib] (drug 1000 nM) = upper
• COc1cc2nccc(Oc3ccc(NC(=O)C4(C(=O)Nc5ccc(F)cc5)CC4)cc3)c2cc1OC [Cabozantinib (XL184)] (drug 1000 nM) = lower
• Nc1ccccc1NC(=O)c1ccc(CNC(=O)OCc2cccnc2)cc1 [Entinostat] (drug 10000 nM) = upper

Then there is this compound:
Query string: Hello team, could you let me know which band the following compound falls into: CC1=C(/C=C/C(C)=C/C=C/C(C)=C/C(=O)O)C(C)(C)CCC1 [Tretinoin] (drug 10000 nM)
Result string: middle

----------
# System: MCF-7 Tam1
# assay-info: viability inhibition at highest dose (% inhibition); higher = more growth inhibition
# conditions: 4-OH-tamoxifen in medium 1 µM; 72 h
Structures can show the parent of a compound that is named as a salt.
In this section we review reported viability inhibition at highest dose values for a set of compounds.
The answer should be a number; do not append a unit.

• CS(=O)(=O)OCCCCOS(C)(=O)=O [Busulfan] (drug 100000 nM) = -1.89
• CCNC(=O)c1noc(-c2cc(C(C)C)c(O)cc2O)c1-c1ccc(CN2CCOCC2)cc1 [NVP-AUY922] (drug 1000 nM) = 24.1

Query string: Please tell me the measured viability inhibition at highest dose for Cn1c(CCCC(=O)O)nc2cc(N(CCCl)CCCl)ccc21 [Bendamustine (hydrochloride hydrate)] (drug 10000 nM) ; system: MCF-7 Tam1.
Result string: -4.92

----------
# Test system: MCF-7
# assay-info: relative IC50 (midpoint of fitted logistic curve, plateau may be below 50% inhibition; CellTiter-Glo viability); higher = less potent
# conditions: 4-OH-tamoxifen in medium 1 µM; 72 h
In this section we review reported relative IC50 values for a set of molecules.

Solved cases (7 shown):
* CCNC(=O)c1noc(-c2cc(C(C)C)c(O)cc2O)c1-c1ccc(CN2CCOCC2)cc1 [NVP-AUY922] | 41.2 nM
* COc1ccc(-c2cc3c(C)nc(N)nc3n([C@H]3CC[C@H](OCCO)CC3)c2=O)cn1 | 173 nM
* NC(=O)c1ccc(I)c([N+](=O)[O-])c1 | > 10000 nM
* COc1ccc(-c2ccc3c(N4CCOC[C@@H]4C)nc(N4CCOC[C@@H]4C)nc3n2)cc1CO [AZD8055] | 130 nM
* CCC1=C[C@@H]2CN(C1)Cc1c([nH]c3ccccc13)[C@@](C(=O)OC)(c1cc3c(cc1OC)N(C)[C@H]1[C@@](O)(C(=O)OC)[C@H](OC(C)=O)[C@]4(CC)C=CCN5CC[C@]31[C@@H]54)C2 [Vinorelbine (tartrate)] | 141 nM
* CNCc1ccc(-c2[nH]c3cc(F)cc4c3c2CCNC4=O)cc1 | > 10000 nM
* O=S(=O)(c1cccc2cnccc12)N1CCCNCC1 [Fasudil (HA-1077)] | > 50000 nM

--- query ---
Query string: Assign relative IC50 to the following record: C[C@]1(c2nc3c(C(N)=O)cccc3[nH]2)CCCN1 [Veliparib (ABT-888)]
Result string: > 10000 nM

----------
# Tested on: BT-474
# assay-info: viability inhibition at highest dose (% inhibition); higher = more growth inhibition
# conditions: 4-OH-tamoxifen in medium 1 µM; 72 h
Just a reminder that ties go to condition not met: only viability inhibition at highest dose strictly below -7 counts as condition met.

• C=CCNC1=C2C[C@@H](C)C[C@H](OC)[C@H](O)[C@@H](C)/C=C(\C)[C@H](OC(N)=O)[C@@H](OC)/C=C\C=C(/C)C(=O)NC(=CC1=O)C2=O [Tanespimycin (17-AAG)] (drug 10000 nM) = condition not met
• CN(C)c1nc(N(C)C)nc(N(C)C)n1 [Altretamine] (drug 10000 nM) = condition met
• CS(=O)(=O)CCNCc1ccc(-c2ccc3ncnc(Nc4ccc(OCc5cccc(F)c5)c(Cl)c4)c3c2)o1 [Lapatinib] (drug 1000 nM) = condition not met
• Cn1cnc2c(F)c(Nc3ccc(Br)cc3Cl)c(C(=O)NOCCO)cc21 [Selumetinib (AZD6244)] (drug 10000 nM) = condition not met
• CC(=O)Nc1ccc(C(=O)Nc2ccccc2N)cc1 [Tacedinaline (CI-994)] (drug 1000 nM) = condition not met

Then there is this compound:
Query string: Lab note: viability inhibition at highest dose threshold -7. Does this compound come in strictly under it? COc1cc(Nc2ncc(F)c(Nc3ccc4c(n3)NC(=O)C(C)(C)O4)n2)cc(OC)c1OC [Tamatinib (R406)] (drug 10000 nM)
Result string: condition met

----------
# Test system: ZR-75-1
# assay-info: drug sensitivity score (DSS) (DSS (dimensionless)); higher = more sensitive; extreme values may be limits of the assay
# conditions: 4-OH-tamoxifen in medium 1 µM; 72 h
value-kind: drug sensitivity score
The answer should be a number; do not append a unit.

Solved cases (6 shown):
- CC[C@@]1(O)C(=O)OCc2c1cc1n(c2=O)Cc2cc3ccccc3nc2-1: 7.82
- CCN1CCN(c2ccc(Nc3cc(N(C)C(=O)Nc4c(Cl)c(OC)cc(OC)c4Cl)ncn3)cc2)CC1: 0
- C[C@@H]1C[C@H]2[C@@H]3CCC4=CC(=O)C=C[C@]4(C)[C@@]3(F)[C@@H](O)C[C@]2(C)[C@@]1(O)C(=O)CO: 0
- O=C(NC[C@H](O)CO)c1ccncc1Nc1ccc(I)cc1F: 0
- Oc1nc(-c2ccc(C(F)(F)F)cc2)nc2c1CSCC2: 0
- CC[C@@H]1C(=O)N(C)c2cnc(Nc3ccc(C(=O)NC4CCN(C)CC4)cc3OC)nc2N1C1CCCC1: 2.08

Query string: Assign drug sensitivity score to the following record: CCC/C=C/C=C/C(=O)O[C@H]1/C(=C/C(=O)OC)C[C@H]2C[C@H]([C@@H](C)O)OC(=O)C[C@H](O)C[C@@H]3C[C@H](OC(C)=O)C(C)(C)[C@](O)(C[C@@H]4C/C(=C/C(=O)OC)C[C@H](/C=C/C(C)(C)[C@]1(O)O2)O4)O3
Result string: 0

Query string: Assign drug sensitivity score to the following record: COc1cc(OC2CCN(C)CC2)ccc1Nc1ncc2c(n1)n(C1CCCC1)c(=O)n2C
Result string: 0.0431

Query string: Assign drug sensitivity score to the following record: CCC1(c2ccc(N)cc2)CCC(=O)NC1=O (stereo not given) [Aminoglutethimide]
Result string: 0

Query string: Assign drug sensitivity score to the following record: COc1ccc(-c2cc3c(C)nc(N)nc3n([C@H]3CC[C@H](OCCO)CC3)c2=O)cn1
Result string: 17

Query string: Assign drug sensitivity score to the following record: OC[C@H]1O[C@@H](n2cnc3c2N=CNC[C@H]3O)C[C@@H]1O
Result string: 3.83

Query string: Assign drug sensitivity score to the following record: CC(C)(C)c1cc(NC(=O)Nc2ccc(-c3cn4c(n3)sc3cc(OCCN5CCOCC5)ccc34)cc2)no1
Result string: 0

Query string: Assign drug sensitivity score to the following record: COc1cc(Nc2ncc(F)c(Nc3ccc4c(n3)NC(=O)C(C)(C)O4)n2)cc(OC)c1OC [Tamatinib (R406)]
Result string: 0

Query string: Assign drug sensitivity score to the following record: CO[C@H]1/C=C\C=C(/C)C(=O)NC2=CC(=O)C(NCCN(C)C)=C(C[C@@H](C)C[C@H](OC)[C@H](O)[C@@H](C)/C=C(\C)[C@@H]1OC(N)=O)C2=O
Result string: 6.21

Query string: Assign drug sensitivity score to the following record: O=C1CN2Cc3c(ccc(Cl)c3Cl)N=C2N1 [Anagrelide]
Result string: 0
